Test system: SH-SY5Y M-currents (KCNQ2, KCNQ3 and KCNQ5)
Experiment: SH-SY5Y native cell line FLIPR assay (voltage-sensitive dye DiBAC)
Assay type: cell-based, mouse neuroblastoma, rat glioma hybrid cell line
Details: FLIPR assay, SH-SY5Y native cell line; Table 2; read-out: SH-SY5Y EC50
pEC50: −log10 of the molar value.
Listing: pEC50 of selected compounds

Below, each entry is followed by its recorded pEC50 result.
COMPOUND | pEC50
CC1(CC(=O)Nc2nc3ccc(F)cn3c2-c2ccc(OC(F)(F)F)cc2)CCCC1 | > 6.30
CC(CC(=O)Nc1nc2ccc(F)cn2c1-c1ccc(F)cc1)CC(C)(C)C (stereo not shown) | > 6.30
O=C(Cc1ccccc1)Nc1nc2ccc(F)cn2c1-c1ccc(F)c(F)c1 | > 6.30

Q: Under SH-SY5Y M-currents (KCNQ2, KCNQ3 and KCNQ5): report pEC50 of CC(C(=O)Nc1nc2cc(C(F)(F)F)ccn2c1-c1ccccc1)c1ccccc1 (stereo not shown) .
A: 5.52 to 6.30

Q: Under SH-SY5Y M-currents (KCNQ2, KCNQ3 and KCNQ5): report pEC50 of O=C(Nc1nc2ccc(F)cn2c1-c1ccc(OC(F)(F)F)cc1)C1CCOC1 (stereo not shown) .
A: 5.00 to 5.52

Q: Under SH-SY5Y M-currents (KCNQ2, KCNQ3 and KCNQ5): report pEC50 of Cc1ccn2c(-c3ccc(F)cc3)c(NC(=O)Cc3ccc(C(F)(F)F)cc3)nc2c1 .
A: > 6.30

Q: Under SH-SY5Y M-currents (KCNQ2, KCNQ3 and KCNQ5): report pEC50 of CC(C)(C)CC(=O)Nc1nc2ccc(C#N)cn2c1-c1ccc(C(F)(F)F)cc1 .
A: > 6.30

Q: Under SH-SY5Y M-currents (KCNQ2, KCNQ3 and KCNQ5): report pEC50 of O=C(Cc1ccccc1)Nc1nc2cc(C(F)(F)F)ccn2c1-c1ccc(F)cc1F .
A: 5.52 to 6.30

Q: Under SH-SY5Y M-currents (KCNQ2, KCNQ3 and KCNQ5): report pEC50 of CC(C)(C)C(F)(F)C(=O)Nc1nc2ccc(F)cn2c1-c1ccc(C(F)(F)F)cc1 .
A: > 6.30
